Form field: pEC50 (one value per entry).
test system: CEM cells HIV-1 protection, formazan growth assay; assay: NCI AIDS Antiviral Assay
pEC50: −log10 of the molar value.

INSERT INTO assay_data (molecule, result) VALUES
  ('CN(C)c1ccc(C2SCC(=O)N2c2ccc(Oc3ccc(Cl)cc3)c(Cl)c2)cc1 (stereo not given)', '< 3.70'),
  ('CC1(C(N)=O)OC12CCCCC2 (stereo not given)', '< 3.70'),
  ('O=C(NNc1nc2cc(F)ccc2n2cccc12)c1cnccn1', '< 3.70');

Input O=c1[nH]c2ccc([N+](=O)[O-])cc2nc1/C(=N/Nc1ccccc1)C(O)c1ccco1 (stereo not given) , output reported pEC50. < 3.36

Input CC1=CC(c2ccccc2)n2c(nc3cc4ccccc4cc32)N1 (stereo not given) , output reported pEC50. < 3.70

Input COc1ccc(C(O)/C(=N\NC(N)=S)c2nc3ccc([N+](=O)[O-])cc3[nH]c2=O)cc1OC (stereo not given) , output reported pEC50. < 3.54

Input "CC(C)(C)CC1=CC(=C2C=C(CC(C)(C)C)C(=O)C(CC(C)(C)C)=C2)C=C(CC(C)(C)C)C1=O" , output reported pEC50. < 4.81

Input "Nc1c(Br)cc2snc3c2c1C(=O)c1ccccc1-3" , output reported pEC50. < 4.80

Input "Clc1ccc(-c2c3nc(c(-c4ccc(Cl)cc4)c4ccc([nH]4)c(-c4ccc(Cl)cc4)c4nc(c(-c5ccc(Cl)cc5)c5ccc2[nH]5)C=C4)C=C3)cc1" , output reported pEC50. < 3.70

Input "O=C(/C=C/c1cccc(Br)c1)c1ccccc1" , output reported pEC50. < 4.88

----------
tested on: CEM cells HIV-1 protection, formazan growth assay; experiment: NCI AIDS Antiviral Assay; details: measured here: growth of uninfected CEM cells
METRIC: IC50

INSERT INTO assay_data (compound, experimental_system, metric, result) VALUES
  ('C(=C\c1cc(-c2ccc3ccccc3n2)nc2ccc3ccccc3c12)/c1ccc2ccccc2n1', 'CEM cells HIV-1 protection, formazan growth assay', 'IC50', '> 200 µM'),
  ('Nn1c(SCC(=O)O)nc2ccccc2c1=O', 'CEM cells HIV-1 protection, formazan growth assay', 'IC50', '> 200 µM'),
  ('Cc1cc(N=Nc2ccc([N+](=O)[O-])cc2)c(NCC(O)C(O)C(O)CO)cc1C (configuration not stated)', 'CEM cells HIV-1 protection, formazan growth assay', 'IC50', '34.7 µM'),
  ('Cc1ccc(/C(O)=C/c2nc3c(nc2NC24CC5CC(CC(C5)C2)C4)c(=O)oc2ccccc23)cc1', 'CEM cells HIV-1 protection, formazan growth assay', 'IC50', '> 2.19 µM'),
  ('COC(=O)C1C23CC(=O)CC1(c1ccc4c(c1)OCO4)C2NC3=O (configuration not stated)', 'CEM cells HIV-1 protection, formazan growth assay', 'IC50', '> 398 µM'),
  ('CC1=Nc2ccccc2SC(c2c(Cl)cccc2Cl)C1 (configuration not stated)', 'CEM cells HIV-1 protection, formazan growth assay', 'IC50', '4.57 µM'),
  ('O=c1c2cc(Br)ccc2[nH]c(=S)n1-c1ccc(Br)cc1', 'CEM cells HIV-1 protection, formazan growth assay', 'IC50', '> 45.7 µM'),
  ('CC(C)(CN1CCCCC1)C(=O)CC(SCCS(=O)(=O)O)c1ccccc1 (configuration not stated)', 'CEM cells HIV-1 protection, formazan growth assay', 'IC50', '3.31 µM');

Provide IC50, recorded with CEM cells HIV-1 protection, formazan growth assay, of "CCOC(=O)C1(N)CC1" > 200 µM

Provide IC50, recorded with CEM cells HIV-1 protection, formazan growth assay, of CC(C)N(C(=O)C12C3C4C5C3C1(C(=O)N(C(C)C)C(C)C)C5C42)C(C)C (configuration not stated) > 100 µM

Provide IC50, recorded with CEM cells HIV-1 protection, formazan growth assay, of "CC(=O)Nc1ccc(S(=O)(=O)NN(C)S(=O)(=O)c2ccc(C)cc2)cc1" > 18.2 µM

Provide IC50, recorded with CEM cells HIV-1 protection, formazan growth assay, of Cc1ccc([N+](=O)[O-])cc1NC(=O)C(=O)C1CCC2=C(Sc3ccccc3N2)C1=O (configuration not stated) > 117 µM

Provide IC50, recorded with CEM cells HIV-1 protection, formazan growth assay, of "CC(=O)c1cn(-c2ccc(Cl)cc2)c(=O)c2c(N)n[nH]c12" > 200 µM

Provide IC50, recorded with CEM cells HIV-1 protection, formazan growth assay, of "O=CC1=CCCN(CCc2c[nH]c3ccccc23)C1" 10.2 µM

Provide IC50, recorded with CEM cells HIV-1 protection, formazan growth assay, of C/C(=N\N(C)C)C(CN1CCCCC1)C(c1ccccc1)c1c(O)c2ccccc2oc1=O (configuration not stated) > 69.2 µM

----------
Form field: IC50 (one value per entry).
tested on: CEM cells HIV-1 protection, formazan growth assay; assay: NCI AIDS Antiviral Assay; conditions: measured here: growth of uninfected CEM cells

INSERT INTO results (compound, experimental_system, result) VALUES
  ('N#CCCN(CCCCN(CCC#N)C(=O)Nc1ccccc1)C(=O)Nc1ccccc1', 'CEM cells HIV-1 protection, formazan growth assay', '> 200 µM');

Input OC(Cc1cnnc2ccccc12)C(Cl)(Cl)Cl (centres undefined) , output reported IC50. 70.8 µM

Input "COc1nc2sc3c(c2c(=O)n1CCCSSCCCn1c(OC)nc2sc4c(c2c1=O)CCCC4)CCCC3" , output reported IC50. > 100 µM

----------
tested on: CEM cells HIV-1 protection, formazan growth assay; assay: NCI AIDS Antiviral Assay; settings: measured here: growth of uninfected CEM cells
METRIC: pIC50
pIC50 field: float, defined as -log10 of concentration (mol/L).

Some entries whose results are on file:
INSERT INTO measurements (molecule, experimental_system, metric, measured_number) VALUES
  ('C=C1CC(COc2cc(=O)oc3ccccc23)(c2ccccc2)OC1=O (stereo not given)', 'CEM cells HIV-1 protection, formazan growth assay', 'pIC50', 6.42),
  ('O=C(O)c1cc(OS(=O)(=O)O)c(OS(=O)(=O)O)c(OS(=O)(=O)O)c1', 'CEM cells HIV-1 protection, formazan growth assay', 'pIC50', 4.95);

Input O=C(NN1C(=O)C(Cl)C1c1cccc(O)c1)c1ccccc1O (stereo not given) , output reported pIC50. 3.85

Input "O=C(OC/C=C1C=C(OC(=O)c2ccccc2)/C(=N/N(C(=O)c2ccccc2)c2ccccc2)O\1)c1ccccc1" , output reported pIC50. 4.96

Input Nc1nc(Cl)cc(NCC2(CO)CC(CCCc3ccccc3)C2)n1 (stereo not given) , output reported pIC50. 7.22

----------
tested on: CEM cells HIV-1 protection, formazan growth assay; test: NCI AIDS Antiviral Assay; settings: measured here: growth of uninfected CEM cells
Form field: IC50 (one value per entry).

Some entries whose results are on file:
INSERT INTO measurements (compound, experimental_system, result) VALUES
  ('Cc1cc2oc(=O)[nH]c(=S)c2c(C)c1C', 'CEM cells HIV-1 protection, formazan growth assay', '> 17 µM'),
  ('CC/C(=C\c1ccc(OC)cc1)c1ccc(OC)cc1', 'CEM cells HIV-1 protection, formazan growth assay', '> 200 µM'),
  ('Clc1ccc(-c2c3nc(c(-c4ccc(Cl)cc4)c4ccc([nH]4)c(-c4ccc(Cl)cc4)c4nc(c(-c5ccc(Cl)cc5)c5ccc2[nH]5)C=C4)C=C3)cc1', 'CEM cells HIV-1 protection, formazan growth assay', '> 200 µM'),
  ('CCOC(=O)c1ncn(CCc2ccc(Cl)cc2)c1C', 'CEM cells HIV-1 protection, formazan growth assay', '> 100 µM');

Query compound follows.
Input COc1cccc(C2SCC(=O)N2c2ccc(-n3c(-c4ccccc4)nc4ccccc4c3=O)cc2)c1OC (stereo not given) , output reported IC50. > 200 µM

----------
tested on: CEM cells HIV-1 protection, formazan growth assay; experiment: NCI AIDS Antiviral Assay;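 active = compounds giving half or more protection of infected cells from virus-caused growth loss, again on retest; inactive = the rest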
Field 'call' accepts True (active), False (inactive)

Example entries and their recorded answers appear below.
INSERT INTO measurements (compound, category) VALUES
  ('CCOc1ccc(N=C2NC(=O)C(CC(=O)Nc3ccccc3[N+](=O)[O-])S2)cc1 (centres undefined)', 'False'),
  ('CC(C)c1cccc(C(C)C)c1NC(=S)N=Nc1cc(C(C)(C)C)c(O)c(C(C)(C)C)c1', 'False'),
  ('CCn1c(O)c(C=Nc2ccccc2)s/c1=N/Nc1nc(C)c(C(C)=O)s1', 'False'),
  ('COC(=O)C1=CN=C(C(=O)OC)NN1', 'False'),
  ('C=CCCC(=O)C(=[N+]=[N-])C(=O)CCC(=O)c1ccccc1', 'False');

Dear colleague, could you share the recorded outcome for COC1/C=C/OC2(C)Oc3c(C)c(O)c4c(O)c(c(/C=N/N5CC(C)(C)N(Cc6ccccc6)CC5(C)C)c(O)c4c3C2=O)NC(=O)C(C)=C/C=C/C(C)C(O)C(C)C(O)C(C)C(OC(C)=O)C1C (centres undefined) when you have a moment? False

Dear colleague, could you share the recorded outcome for C=CCOC(=O)C1(C)C(=O)CCC1CC/C=C/C(C)=O (centres undefined) when you have a moment? False

Dear colleague, could you share the recorded outcome for "Clc1ccc(NC2=NCCN=C(Nc3ccc(Cl)c(Cl)c3)SS2)cc1Cl" when you have a moment? False

Dear colleague, could you share the recorded outcome for COC(=O)C12C3C4C5(C(=O)OC)C(C1C35C(=O)N(C(C)C)C(C)C)C42C(=O)N(C(C)C)C(C)C (centres undefined) when you have a moment? False

Dear colleague, could you share the recorded outcome for "CCC(=O)n1c(=O)n(-c2ccc([N+](=O)[O-])cc2)c(=O)n1C(=O)CC" when you have a moment? False

Dear colleague, could you share the recorded outcome for "Cc1cc(C)nc(NS(=O)(=O)c2ccc(Nc3c4ccccc4nc4c(C(=O)NC(CO)(CO)CO)cccc34)cc2)n1" when you have a moment? False

Dear colleague, could you share the recorded outcome for "CCOC(=O)/C=C/c1ccc(F)cc1" when you have a moment? False

Dear colleague, could you share the recorded outcome for "O[C@H]1[C@H](O)[C@@H](Cn2nnc(-c3ccccc3)c2-c2ccccc2)OCO[C@@H]1Cn1nnc(-c2ccccc2)c1-c1ccccc1" when you have a moment? False

Dear colleague, could you share the recorded outcome for "NC(N)=NS(=O)(=O)c1ccc(Nc2c3ccccc3nc3c(C(=O)N4CCN(CCO)CC4)ccc(Cl)c23)cc1" when you have a moment? False

Dear colleague, could you share the recorded outcome for Cc1nn(C(=O)Cc2ccccc2)c2c1C(c1ccc(N(C)C)cc1)SC(N)=N2 (centres undefined) when you have a moment? True

Dear colleague, could you share the recorded outcome for O=C1C(Cl)C(c2ccccc2)N1n1cnc2ccccc2c1=O (centres undefined) when you have a moment? False

Dear colleague, could you share the recorded outcome for "O=[N+]([O-])c1ccc(-c2noc(-c3ccc(Cl)cc3)c2C2=NCCCN2)cc1" when you have a moment? False

Dear colleague, could you share the recorded outcome for "NC(=O)NNCc1c(-c2ccccc2)no[n+]1[O-]" when you have a moment? False

Dear colleague, could you share the recorded outcome for "O=C1OC(=O)c2cc(S(=O)(=O)c3ccc4c(c3)C(=O)OC4=O)ccc21" when you have a moment? False
